Just for reference, paper PMC3796549 is where these values come from.

biological target: PtpB from Mtb (Mycobacterium tuberculosis); construct: made in house; assay: biochemical; format: biochemical; conditions: pNPP substrate, 37 °C, imidazole pH 7.0; mean ± SD, 3 experiments
Sequence (P96830 1-276): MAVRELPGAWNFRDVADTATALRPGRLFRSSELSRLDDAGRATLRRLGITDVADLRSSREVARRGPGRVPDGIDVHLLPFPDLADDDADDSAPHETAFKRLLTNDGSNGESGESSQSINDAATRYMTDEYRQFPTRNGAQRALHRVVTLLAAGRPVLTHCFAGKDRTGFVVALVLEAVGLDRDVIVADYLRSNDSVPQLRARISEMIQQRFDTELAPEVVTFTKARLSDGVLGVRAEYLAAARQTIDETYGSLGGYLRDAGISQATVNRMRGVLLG
assay metric: log10(IC50) (log10 of the value in µM)
Response schema: value (number) is log10 of IC50 in units of µM.

| molecule | log10(IC50) |
| --- | --- |
| COc1c(C2COc3cc(O)c(CC=C(C)C)c(O)c3C2=O)ccc(O)c1CC=C(C)C (stereo not shown) | 1.30 |
| CC(C)=CCC/C(C)=C/Cc1cc(CCC(=O)c2c(O)cc(O)c(CC=C(C)C)c2O)ccc1O | 1.13 |
| CC(C)=CCc1c(O)ccc(C(=O)[C@H]2[C@@H](c3c(O)cc(/C=C/c4ccc(O)cc4O)cc3O)C=C(C)C[C@@H]2c2ccc(O)cc2O)c1O | 0.28 |
| COc1c(C)c(O)c2c(c1-c1c(OC)c(C)c(O)c3c1C(=O)c1cc(C)cc(O)c1C3=O)C(=O)c1cc(C)cc(O)c1C2=O | 1.28 |
| CC(C)=CCc1c(C)c(CC=C(C)C)c2c(c1O)C(=O)c1c(O)cc(O)c(CC=C(C)C)c1C2 | 0.73 |

Item COc1c(C2COc3cc(O)c(CCC(C)C)c(O)c3C2=O)ccc(O)c1CCC(C)C (stereo not shown) [M2H, tetra-hydro-isosophoranone] has what recorded log10(IC50)?
1.84

---

target: human PTP1B (Homo sapiens, UniProt P18031); construct: made in house; assay: biochemical
Sequence (P18031 whole entry): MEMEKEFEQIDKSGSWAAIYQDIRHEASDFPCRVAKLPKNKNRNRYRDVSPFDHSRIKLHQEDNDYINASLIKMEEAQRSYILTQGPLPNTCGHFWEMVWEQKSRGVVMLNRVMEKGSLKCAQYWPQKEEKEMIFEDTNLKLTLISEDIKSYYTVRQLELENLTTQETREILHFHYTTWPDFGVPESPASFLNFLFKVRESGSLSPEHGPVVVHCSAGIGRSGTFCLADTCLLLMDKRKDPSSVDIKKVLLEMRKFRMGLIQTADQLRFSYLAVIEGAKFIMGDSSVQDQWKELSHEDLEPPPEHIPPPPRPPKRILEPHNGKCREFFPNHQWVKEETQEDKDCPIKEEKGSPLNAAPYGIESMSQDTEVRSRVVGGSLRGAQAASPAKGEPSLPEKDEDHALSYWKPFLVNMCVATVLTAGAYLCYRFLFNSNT
assay metric: SI (Selectivity index)
Respond using a number only.

Consider the worked cases shown below.
| structure notation | assay metric | measured number |
| --- | --- | --- |
| COc1c(C)c(O)c2c(c1-c1c(OC)c(C)c(O)c3c1C(=O)c1cc(C)cc(O)c1C3=O)C(=O)c1cc(C)cc(O)c1C2=O | SI (Selectivity index) | 0.4 |
| CC(C)=CCc1c(C)c(CC=C(C)C)c2c(c1O)C(=O)c1c(O)cc(O)c(CC=C(CO)CO)c1C2 | SI (Selectivity index) | 0.6 |
| CC(C)=CCC/C(C)=C/Cc1cc(CCC(=O)c2c(O)cc(O)c(CC=C(C)C)c2O)ccc1O | SI (Selectivity index) | 1.6 |

Item COc1c(C)c(OC(C)=O)c2c(c1-c1c(OC)c(C)c(OC(C)=O)c3c1C(=O)c1cc(C)cc(OC(C)=O)c1C3=O)C(=O)c1cc(C)cc(OC(C)=O)c1C2=O has what recorded SI (Selectivity index)?
0.9

Item CC(C)=CCc1c(O)ccc(C(=O)[C@H]2[C@@H](c3c(O)cc(/C=C/c4ccc(O)cc4O)cc3O)C=C(C)C[C@@H]2c2ccc(O)cc2O)c1O has what recorded SI (Selectivity index)?
5.1

---

target: PtpB (Mycobacterium tuberculosis, UniProt P96830); construct: made in house; assay: biochemical; conditions: with respect to substrate pNPP
Sequence (P96830 1-276): as the sequence (P96830 1-276) above
assay metric: Type of inhibition

| structure notation | result |
| --- | --- |
| CC(C)=CCc1c(O)ccc(C(=O)[C@H]2[C@@H](c3c(O)cc(/C=C/c4ccc(O)cc4O)cc3O)C=C(C)C[C@@H]2c2ccc(O)cc2O)c1O | Competitive |
| COc1c(C)c(O)c2c(c1-c1c(OC)c(C)c(O)c3c1C(=O)c1cc(C)cc(O)c1C3=O)C(=O)c1cc(C)cc(O)c1C2=O | Competitive |
| CC(C)=CCC/C(C)=C/Cc1cc(CCC(=O)c2c(O)cc(O)c(CC=C(C)C)c2O)ccc1O | Non-competitive |
| CC(C)=CCc1c(C)c(CC=C(C)C)c2c(c1O)C(=O)c1c(O)cc(O)c(CC=C(C)C)c1C2 | Non-competitive |
| COc1c(C)c(OC(C)=O)c2c(c1-c1c(OC)c(C)c(OC(C)=O)c3c1C(=O)c1cc(C)cc(OC(C)=O)c1C3=O)C(=O)c1cc(C)cc(OC(C)=O)c1C2=O | Competitive |

Item CC(C)=CCc1c(C)c(CC=C(C)C)c2c(c1O)C(=O)c1c(O)cc(O)c(CC=C(CO)CO)c1C2 has what recorded Type of inhibition?
Non-competitive
